System: OVCAR-5 ovarian
Test: NCI-60 one-dose screen, 48 h (100 = growth as untreated, 0 = no growth, -100 = all killed)
Settings: 10 µM unless noted
About 83,000 compounds went through this panel and 20% of them were active in at least one assay; those are over-represented in the sample as a whole.
measurementLabel: growth (%)

{"columns": ["compound", "measurementLabel", "valueObserved"],
 "data": [
  ["NC(=S)N/N=C/c1ccc(OCc2ccccc2)cc1", "growth", 89.7],
  ["CC1(C)CC(=O)C(c2c(-c3ccccc3)[nH]c3[nH]c(=S)[nH]c(=O)c23)=C(O)C1", "growth", 98.4],
  ["CCCCCCCCCCCCCCCCCCSC1=CC(=O)C(OC)=C(OC)C1=O", "growth", 94.3],
  ["CCCCCC(=O)N(CCCC)CCCC", "growth", 103],
  ["Oc1ccc2c(=S)cc(-c3ccc(Br)cc3)oc2c1O", "growth", 67.9],
  ["COc1ccc(C2Nc3ccccc3-n3cccc32)cc1 (stereo unspecified)", "growth", 84.9]
]}

###

Tested on: NCI-H23 lung
Test: NCI-60 one-dose screen, 48 h (100 = growth as untreated, 0 = no growth, -100 = all killed)
Settings: 10 µM unless noted
About 83,000 compounds went through this panel and 20% of them were active in at least one assay; those are over-represented in the sample as a whole.

{"columns": ["chemSmiles", "growth / %"],
 "data": [
  ["N#Cc1ccc(NC(=O)Nc2ccc(Cc3ccc(NC(=O)Nc4ccc(C#N)cc4)cc3)cc2)cc1", -4.62],
  ["CN1/C(=C\\C=C\\C2=[N+](C)c3ccccc3C2(C)C)C(C)(C)c2ccccc21", -6.67],
  ["O=C1/C(=C/c2ccccc2)CN(CCC(=O)N2C/C(=C\\c3ccccc3)C(=O)/C(=C/c3ccccc3)C2)C/C1=C\\c1ccccc1", 85.4],
  ["CNCc1cccc2c1OCCOCCOCCN(C)S(=O)(=O)c1ccc(cc1)-c1cnc(N)c(n1)C(=O)N2", 52.6],
  ["C/C(=C(/c1ccc(O)cc1)c1ccc(Cl)cc1)c1ccccc1", -62.5],
  ["O=S(=O)(NCCCNc1cc(-c2cn(-c3ccccc3)nc2-c2cccc(O)c2)ccn1)c1ccccc1", 65.9],
  ["CCOC(=O)c1c2c(n3ccc(NC(=O)CCN4CCOCC4)cc13)C(=O)c1ncccc1C2=O", 16.7],
  ["COc1ccc(-c2nc(Nc3cc(C)[nH]n3)c3ccccc3n2)cc1", 60.2],
  ["Cn1c(=O)c2c(ncn2CC[N+](C)(C)C)n(C)c1=O", 99.9]
]}

###

System: U251 CNS
Test: NCI-60 one-dose screen, 48 h
Conditions: 10 µM unless noted
About 83,000 compounds went through this panel and 20% of them were active in at least one assay; those are over-represented in the sample as a whole. The source made the active and inactive calls. The calls were made as follows: active = growth percent below 10; inactive = the rest.
Possible outcomes: active, inactive

{"columns": ["compound", "systemName", "categoryLabel"],
 "data": [
  ["COc1ccc(/C(=C/c2ccc3ccccc3c2)c2nn[nH]n2)cc1OC", "U251 CNS", "inactive"],
  ["CC(=O)C1=C(O)C=C2Oc3c(C(=O)/C=C/c4c(Cl)cccc4Cl)c(O)c(C)c(O)c3[C@]2(C)C1=O", "U251 CNS", "active"],
  ["CC[C@H](Nc1ncnc(N)c1C(N)=O)c1nc2cccc(NCc3ccc(C(=O)NO)cc3)c2c(=O)n1-c1ccccc1", "U251 CNS", "inactive"],
  ["CNc1nc(C)c(-c2nc(Nc3cccc(S(N)(=O)=O)c3)ncc2F)s1", "U251 CNS", "active"],
  ["Clc1cccc(Nc2nc(Nc3cnc4ccccc4c3)c3[nH]cnc3n2)c1", "U251 CNS", "inactive"],
  ["CC(=O)Nc1ccc2c(c1)c(NC(C)=O)nn2C(=O)Nc1ccc(Cc2ccccc2)cc1", "U251 CNS", "inactive"],
  ["O=C1CC(c2nc3ccccc3[nH]2)CN1C1CCCCC1 (centres undefined)", "U251 CNS", "inactive"],
  ["Cc1cc(Cl)ccc1Nc1nc(C(F)(F)F)ccc1C(=O)N/N=C/c1ccc(F)cc1", "U251 CNS", "active"],
  ["COc1nc2c(cc1S(=O)(=O)c1ccccc1)CCc1c-2cnn1Cc1ccccc1", "U251 CNS", "inactive"]
]}

###

Test system: HT29 colon
Assay: NCI-60 one-dose screen, 48 h
Conditions: 10 µM unless noted
Compounds without any hit were thinned out: in the full panel of roughly 83,000, 20% have a hit. Calls of active or inactive are those of the source. The calls were made as follows: active = growth percent below 10; inactive = the rest.
Outcomes: y = active, n = inactive

{"columns": ["chemSmiles", "categoryLabel"],
 "data": [
  ["COc1ncc(-c2ccc3ncnc(Nc4cccc(Cl)c4)c3c2)cc1NS(C)(=O)=O", "n"],
  ["CCOC(=O)C(=Cc1ccccc1F)C(=O)OCC", "n"],
  ["Cc1cc(N/N=C/c2nc(-c3ccc(Cl)cc3)oc2C)c2cc(Cl)ccc2n1", "y"],
  ["COc1ccc(C(=O)c2sc3nc4c(cc3c2N)CCCC4)cc1OC", "n"],
  ["O=C1/C(=C/c2ccc(Cl)cc2Cl)CN(S(=O)(=O)c2ccccc2)C/C1=C\\c1ccc(Cl)cc1Cl", "y"]
]}

###

Tested on: PC-3 prostate
Experiment: NCI-60 one-dose screen, 48 h (100 = growth as untreated, 0 = no growth, -100 = all killed)
Settings: 10 µM unless noted
About 83,000 compounds went through this panel and 20% of them were active in at least one assay; those are over-represented in the sample as a whole.
measurementLabel: growth (%)

{"columns": ["compound", "systemName", "measurementLabel", "valueObserved"],
 "data": [
  ["O=C(COc1cccc(/C=C2/Oc3ccccc3C2=O)c1)Nc1nccs1", "PC-3 prostate", "growth", 14.6],
  ["COc1ccccc1/C=C(/C(=O)c1ccccc1)c1ccccc1", "PC-3 prostate", "growth", 92.2],
  ["CC(=O)/C(=C/c1cccc(Cl)c1)C(=O)c1ccccc1", "PC-3 prostate", "growth", 63.1],
  ["COc1ccc(-n2c(C)nc3c(c(C)nn3-c3ccccc3)c2=O)cc1", "PC-3 prostate", "growth", 26.7],
  ["CCN(CC)CCCCNc1ccc(NCCCCN(CC)CC)c2c1C(=O)c1ccccc1C2=O", "PC-3 prostate", "growth", 94.1],
  ["O=C1Nc2ccccc2/C1=C/C(=N/c1nnc(-c2ccccc2)s1)c1ccccc1", "PC-3 prostate", "growth", 78.4],
  ["Fc1ccc(Cc2ccc(F)cc2)cc1", "PC-3 prostate", "growth", 102],
  ["COc1cc2cc(COc3nccc(-c4ccc(Cl)cc4)n3)c(=O)[nH]c2cc1OC", "PC-3 prostate", "growth", 71.4],
  ["Cn1c2ccccc2c2c3[nH]c(=O)[nH]c(=O)c3c3c4ccccc4n(C)c3c21", "PC-3 prostate", "growth", 41.1],
  ["Cn1cc(-c2nc(-c3c[nH]c4ccccc34)cs2)c2cccnc21", "PC-3 prostate", "growth", 32.5],
  ["O=C(C[C@@H](C(=O)NCc1cccc(C(F)(F)F)c1)N1C(=O)[C@@H](N2C(=O)OC[C@@H]2c2ccccc2)[C@H]1/C=C/c1ccccc1)NC1CCN(Cc2ccccc2)CC1", "PC-3 prostate", "growth", 54.4],
  ["O=C1O[C@H]([C@H](O)CO)C(O)=C1O", "PC-3 prostate", "growth", 96],
  ["Cc1ccc2cnc(N)c(C#Cc3cncc(C(=O)Nc4ccc(CN5CCN(C)CC5)c(C(F)(F)F)c4)c3)c2c1", "PC-3 prostate", "growth", -71],
  ["O=C1/C(=C/c2ccc(F)cc2)CN(C(=O)CCN2CCC(=NO)CC2)C/C1=C\\c1ccc(F)cc1", "PC-3 prostate", "growth", -23.9],
  ["Cc1ccc(-c2nc(/C=N/Nc3cc(C)nc4ccc(Cl)cc34)c(C)o2)cc1", "PC-3 prostate", "growth", 33.7],
  ["CCN(CC)CCCC(C)NCCCNc1cccc2cccnc12 (stereo unspecified)", "PC-3 prostate", "growth", 87.3],
  ["Nc1nc2c(c3ncccc13)C(c1ccc(Cl)c(Cl)c1)Cc1ncccc1-2 (stereo unspecified)", "PC-3 prostate", "growth", 19.5],
  ["Nc1nc(SCc2ccccc2)c2ncn(C3CCCC3)c2n1", "PC-3 prostate", "growth", 83.2],
  ["O=C(N/N=C/c1ccc(O)cc1O)c1cccnc1", "PC-3 prostate", "growth", 53.2],
  ["O=c1cc(-c2ccccc2)[nH]c2ccccc12", "PC-3 prostate", "growth", 27.1],
  ["S=c1[nH]nc(CSc2ncnc3c2c(-c2ccccc2)cn3-c2ccc(Cl)cc2)o1", "PC-3 prostate", "growth", 88.1],
  ["CC/C=C\\C[C@H](F)C/C=C1/C(=O)C=C[C@@H]1C/C=C\\CCCC(=O)OC", "PC-3 prostate", "growth", 12.9],
  ["CC/C=C\\C[C@H](O)C/C=C1/C(=O)C=C[C@@H]1C/C=C\\CCCC(N)=O", "PC-3 prostate", "growth", 19.6],
  ["O=C(O)c1cn(C2CC2)c2cc(N3CCN(Cc4nc5c(cnn5-c5ccc([N+](=O)[O-])cc5)c(=O)[nH]4)CC3)c(F)cc2c1=O", "PC-3 prostate", "growth", 93.9],
  ["COc1ccc(-c2cc(-c3ccc(N(C)C)cc3)nc(NC(=O)c3ccncc3)n2)cc1", "PC-3 prostate", "growth", 83.5],
  ["Cc1cc2cc3cc(C)c(N(C)C)cc3nc2cc1N(C)C", "PC-3 prostate", "growth", 4.41],
  ["OC(c1cccc(C(F)(F)F)c1)c1cnccc1NC1CCCCCC1 (stereo unspecified)", "PC-3 prostate", "growth", 22.4],
  ["Cc1ccc(Nc2c(C(N)=O)cnc3ccc(-c4csc(N)n4)cc23)cc1", "PC-3 prostate", "growth", 97.6],
  ["COc1nc2c(cc1S(=O)(=O)c1ccccc1)CCc1c-2cnn1Cc1ccccc1", "PC-3 prostate", "growth", 38.3],
  ["O=C(Nc1ccc(CN2CCOCC2)cc1)c1[nH]ncc1Nc1ncnc2sccc12", "PC-3 prostate", "growth", 11],
  ["CCC(=O)Oc1ccc(/C(=C(\\C)c2ccccc2)c2ccc(OCCN(CC)CC)cc2)cc1", "PC-3 prostate", "growth", 66.7],
  ["CC(=O)CC(C)(C)c1ccc(Cl)cc1", "PC-3 prostate", "growth", 93.6],
  ["O=C1OC2C(I)C3CC2C1C3c1ccccc1 (stereo unspecified)", "PC-3 prostate", "growth", 93.8],
  ["c1ccc2c(Nc3cccc4ccccc34)cccc2c1", "PC-3 prostate", "growth", 65.2],
  ["COc1ccc(/C=N\\NC(=O)c2ccncc2)cc1O", "PC-3 prostate", "growth", 106],
  ["Nc1c(C(=O)Nc2ccccc2)sc2nc3c(cc12)CN(CCc1ccccc1)CC3", "PC-3 prostate", "growth", 88.1],
  ["COC(=O)C12C3C(=O)N(c4ccc(OC)cc4)C(=O)C3C(c3cn(-c4ccccc4)nc3C)N1[C@H](c1cn(-c3ccccc3)nc1C)[C@@H]1C(=O)N(c3ccc(OC)cc3)C(=O)[C@@H]12 (stereo partly specified)", "PC-3 prostate", "growth", 87],
  ["COc1ccc(-c2cc(NC(=O)Nc3ccc(O)cc3)no2)cc1", "PC-3 prostate", "growth", 57.6],
  ["N#Cc1c2c(nc3n[nH]c(N)c13)CCCC2", "PC-3 prostate", "growth", 109],
  ["O=C(CO[N+](=O)[O-])Nc1ccc(C(=O)/C=C/c2ccc3c(c2)OCO3)cc1", "PC-3 prostate", "growth", 61.4],
  ["CC[C@H](Nc1nc(N)nc(C)c1C#N)c1nc2cccc(NCc3ccc(C(=O)NO)cc3)c2c(=O)n1-c1ccccc1", "PC-3 prostate", "growth", 5.79]
]}
